- assay_remarks: Cmax in SHR rat at 3 mg/kg, po
- Format: ADME, organism-based
- Parameters: dose 3 mg/kg, route oral
- measurement_conditions: in vivo
attribute_measured: Cmax
Just the number plus its unit, please.

Cmax lookup needed for CCc1nc2c(C)cc(CC(C)C)nc2n1[C@H]1CCc2cc(-c3ccccc3-c3nnn[nH]3)ccc21 , thanks.
283 ng/mL

###

- assay_remarks: AUC in ZDF rat at 10 mg/kg, po
- Type: ADME, organism-based
- Parameters: dose 10 mg/kg, route oral
- measurement_conditions: plasma
attribute_measured: AUC (ng·h/mL)
One number for each entry, in ng·h/mL.

AUC lookup needed for CCc1nc2c(C)cc(CC(C)C)nc2n1[C@H]1CCc2cc(-c3ccccc3-c3nnn[nH]3)ccc21 , thanks.
28000
